pKi: −log10 of the molar value.
Assembled from different publications: pKi for Plasminogen (Homo sapiens, UniProt P00747).

Answered cases to consult:
CC(O)[C@H](NC(=O)[C@@H](CO)NS(=O)(=O)Cc1ccccc1)C(=O)NCc1ccc(C(=N)N)cc1 (stereo partly drawn)
5.85
NCc1ccc(Cl)cc1CNC(=O)[C@@H]1C[C@@H](N)CN1C(=O)[C@@H](CC(=O)N1CCCCC1)NS(=O)(=O)Cc1ccccc1
4.93
N=C(N)Nc1ccc(N)cc1
< 3.00

// for each molecule below, give its pKi
1. COC(=O)c1ccccc1CS(=O)(=O)N[C@H](CO)C(=O)NCC(=O)NCc1ccc(C(=N)N)cc1
2. NCc1ccc(Cl)cc1CNC(=O)[C@@H]1C[C@@H](N)CN1C(=O)[C@@H](CC(=O)N1CCNCC1)NS(=O)(=O)Cc1ccccc1
3. N=C(N)c1ccc(CNC(=O)[C@H](CN)NC(=O)[C@@H](CO)NS(=O)(=O)Cc2ccccc2)cc1
4. CC(=O)N1CCC(CN(C)C(=O)C[C@@H](NS(=O)(=O)Cc2ccccc2)C(=O)N2CCC[C@H]2C(=O)NCc2cc(Cl)ccc2CN)CC1

## Result
[4.42, "< 5.00", 6.09, "< 5.30"]

Provide each entry's pKi from the list below.
1. NCc1ccc(Cl)cc1CNC(=O)[C@@H]1CCCN1C(=O)[C@@H](CCC(=O)O)NS(=O)(=O)Cc1ccccc1
2. NCc1ccc(Cl)cc1CNC(=O)[C@@H]1CCCN1C(=O)[C@@H](CC(=O)N1CCNCC1)NS(=O)(=O)Cc1ccccc1
3. CC(C)(C)OC(=O)NCc1ccc(NC(=N)N)cc1
4. Cc1cc(C(=O)NCc2ccc(C(=N)N)cc2)c(C)n1Cc1ccncc1
5. N=C(N)Nc1ccc(CNC(=O)NC23C[C@H]4C[C@@H](C2)C[C@@H](C3)C4)cc1

## Result
["< 4.82", "< 5.34", "< 3.00", "< 5.00", "< 3.00"]
